Target: T1, human CD70 (human, UniProt P32970 1-193)
T1 construct: also called hu CD70; CD27L
T1 sequence: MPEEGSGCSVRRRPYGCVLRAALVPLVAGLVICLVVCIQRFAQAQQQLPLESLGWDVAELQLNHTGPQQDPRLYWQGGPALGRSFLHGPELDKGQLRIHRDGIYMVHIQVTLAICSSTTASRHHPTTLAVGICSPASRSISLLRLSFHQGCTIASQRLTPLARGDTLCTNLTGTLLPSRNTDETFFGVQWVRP
Experiment: FACS on CHO cells, periplasmic scFv
measured.metric: binding result

Examples with answers:
>>> reported_measurement("CD70-8 (scFv) scFv: QVQLVESGGGVVQPGRSLRLSCAASGFTFSSYGMHWVRQAPGKCLEWVAVIWYDGSDKYFADSVKGRFTISRDNSKNTLYLQMNSLRAEDTAVYYCARDGIAGARYVYFDYWGQGTLVTVSSGGGGSGGGGSGGGGSDIQMTQSPSSLSASVGDRVTITCRASQGISNYLAWFQQKPGKAPKSLIYAASSLQGGVPSKFSGSGSGTDFTLTISSLQPEDFATYYCQQYYNYPFTFGCGTTVDIK")
"binds"
>>> reported_measurement("CD70-37 (scFv, As m32) scFv: EVQLLESGGGLVQPGGSLRLSCAASGFTFSSYAMSWVRQAPGKGLEWVSAIGDGGGYTYYADSVKGRFTISRDNSKNTLSLLMNSLRAEDTAVYYCARHDYSNYPYFDYWGQGTLVTVSSGGGGSGGGGSGGGGSEIVLTQSPGTLSLSPGERATLSCRASQGVRSSYFAWYQQKPGQAPRLLIYGASTRATGIPARFSGSGSGTDFTLTISRLEPEDFAVYYCQQYGSSPPTFGQGTKVEIK")
"binds"
>>> reported_measurement("CD70-66 (scFv, As m32) scFv: EVQLLESGGGLVQPGGSLRLSCAASGFTFSSYAMSWVRQAPGQCLEWVSAISGSGGRTYYADSVKGRFTISRDNSKNTLYLQMNSLRAEDTAVYYCAKHDYSNYPYFDYWGQGTLVTVSSGGGGSGGGGSGGGGSEIVLTQSPGTLSLSPGERATLSCRASQSVRGSYLAWYQQKPGQAPRLLIYSASSRATGIPDRFSGSGSGTDFTLTISRLEPEDFAVYYCQQYGDSPFTFGCGTKVEIK")
"binds"
>>> reported_measurement("CD70-40 (scFv, As m32) scFv: EVQLLESGGGMVQPGGSLRLSCAASGFTFSSYAMSWVRQAPGKGLEWVSAISGSGGRTFYADSVEGRFTISRDNSKNTLYLQMNSLRAEDTAVYYCAKHDYSNYPYFDYWGQGTLVTVSSGGGGSGGGGSGGGGSEIVLTQSPGTLSLSPGERATLSCRASQSIRSSYLAWYQQKPGQAPRLLIYGASSRATGIPDRFSGSGSGTDFTLTISRLEPEDFAVYYCQQYGDLPFTFGPGTKVDIK")
"binds"

Quick one: binding result of CD70-54 (scFv, As m32) scFv: EVQLLESGGGLVQPGGSLRLSCAASGFTFSIYAMSWVRQAPGKGLEWVSAIGDSGGSTFYADSVKGRFTISRDNSKNTLYLQMNSLRAEDTAVYYCAKHDYSNYPYFDYWGQGTLVTVSSGGGGSGGGGSGGGGSEIVLTQSPGTLSLSPGERATLSCRASQSVRSSYVAWYQQKPGQAPRLLIYGASSRATGIPDRFSGSGSGTDFTLTISRLEPEDFAVYYCQQYGDLPFTFGPGTRLEIK ?
binds
